Where these numbers come from: ChEMBL document CHEMBL3792354

# PROTOCOL_DESCRIPTION: in vitro
# CONDITION_NOTES: PAMPA
# Description: Permeability of the compound at 100 ug/ml by PAMPA-BBB assay
This section presents compounds with their documented Papp at 100 ug/ml values.
Report the value in ×10⁻⁶ cm/s with no unit label.

For record CCN(CCCCCCNC(=O)/C=C/c1ccc(O)c(OC)c1)Cc1ccccc1OC the listed Papp at 100 ug/ml is 5.53

###

# STUDY_TARGET: Amyloid-beta precursor protein (Homo sapiens) (UniProt P05067)
# Sequence (P05067 whole entry): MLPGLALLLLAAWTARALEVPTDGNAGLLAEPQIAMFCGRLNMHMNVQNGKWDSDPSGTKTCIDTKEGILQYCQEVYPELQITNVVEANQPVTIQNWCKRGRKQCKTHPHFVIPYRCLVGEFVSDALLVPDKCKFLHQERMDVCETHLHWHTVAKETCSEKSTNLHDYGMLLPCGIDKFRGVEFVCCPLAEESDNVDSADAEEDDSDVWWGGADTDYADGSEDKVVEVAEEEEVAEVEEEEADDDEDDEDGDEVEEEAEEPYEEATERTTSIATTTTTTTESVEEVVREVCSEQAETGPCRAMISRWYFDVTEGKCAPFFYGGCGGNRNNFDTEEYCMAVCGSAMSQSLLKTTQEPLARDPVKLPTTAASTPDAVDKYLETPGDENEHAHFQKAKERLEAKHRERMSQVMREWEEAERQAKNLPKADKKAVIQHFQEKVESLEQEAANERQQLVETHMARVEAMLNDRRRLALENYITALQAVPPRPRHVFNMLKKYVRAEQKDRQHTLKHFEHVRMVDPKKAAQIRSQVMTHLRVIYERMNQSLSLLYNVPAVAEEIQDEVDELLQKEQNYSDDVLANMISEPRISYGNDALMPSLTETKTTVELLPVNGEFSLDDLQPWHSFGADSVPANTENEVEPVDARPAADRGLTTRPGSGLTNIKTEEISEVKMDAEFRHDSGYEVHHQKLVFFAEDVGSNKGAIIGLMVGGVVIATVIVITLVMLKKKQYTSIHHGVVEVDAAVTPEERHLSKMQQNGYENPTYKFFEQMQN
# PROTOCOL_DESCRIPTION: Inhibition of self-induced amyloid beta (1 to 42) aggregation (unknown origin) at 25 uM by Thioflavin T-based fluorometric assay
VALUE_TYPE: inhibition (%)
Use % as the unit, but write only the number.

CCN(CCCCNC(=O)/C=C/c1ccc(O)c(OC)c1)Cc1ccccc1 = 33.8
COc1cc(/C=C/C(=O)NCCCCN(C)Cc2ccccc2OC)ccc1O = 32.5
CCN(CCCCCCNC1=CC(=O)C(NCCCCCCN(CC)Cc2ccccc2OC)=CC1=O)Cc1ccccc1OC [MEMOQUIN] = 72.7
CCN(CCCCCCNC(=O)/C=C/c1ccc(O)c(OC)c1)Cc1ccccc1OC = 38.1
COc1cc(/C=C/C(=O)O)ccc1O [FERULATE] = 28.3
CCN(CCCNC(=O)/C=C/c1ccc(O)c(OC)c1)Cc1ccccc1 = 33.3
COc1cc(/C=C/C(=O)NCCCN(C)Cc2ccccc2OC)ccc1O = 30.8
CCN(CCCCNC(=O)/C=C/c1ccc(O)c(OC)c1)Cc1ccccc1OC = 38.3

Fill in: Amyloid-beta precursor protein (Homo sapiens) (UniProt P05067) inhibition for COc1cc(/C=C/C(=O)NCCCCCCN(C)Cc2ccccc2OC)ccc1O = 36.6

Lab note: molecule COc1cc(/C=C/C(=O)NCCCCCCN(C)Cc2ccccc2)ccc1O tested on Amyloid-beta precursor protein (Homo sapiens) (UniProt P05067); recorded inhibition was 31.2

The molecule CCN(CCCCCCNC(=O)/C=C/c1ccc(O)c(OC)c1)Cc1ccccc1 , when measured on Amyloid-beta precursor protein (Homo sapiens) (UniProt P05067), yielded inhibition of 37.4

// returns inhibition for COc1cc(/C=C/C(=O)NCCCCN(C)Cc2ccccc2)ccc1O with Amyloid-beta precursor protein (Homo sapiens) (UniProt P05067); value = 31.6

Fill in: Amyloid-beta precursor protein (Homo sapiens) (UniProt P05067) inhibition for CCN(CCCNC(=O)/C=C/c1ccc(O)c(OC)c1)Cc1ccccc1OC = 35.2

inhibition for Amyloid-beta precursor protein (Homo sapiens) (UniProt P05067) with input COc1cc(/C=C/C(=O)NCCCN(C)Cc2ccccc2)ccc1O equals 39.1

###

# Activity per entry
# PROTOCOL_DESCRIPTION: Antioxidant activity assessed as AAPH radical scavenging activity by measuring Trolox equivalent per microM of test compound measured every minute for 90 mins by ORAC-FL assay
# Type: physicochemical
# CONDITION_NOTES: 1.5 h
Field format: number, assumed equiv, no unit text.

As a guide, the following entries are already answered.
CCN(CCCCNC(=O)/C=C/c1ccc(O)c(OC)c1)Cc1ccccc1OC = 1.3
COc1cc(/C=C/C(=O)NCCCCN(C)Cc2ccccc2OC)ccc1O = 1.2
COc1cc(/C=C/C(=O)NCCCCCCN(C)Cc2ccccc2)ccc1O = 1.2
COc1cc(/C=C/C(=O)O)ccc1O [FERULATE] = 1.1
CCN(CCCNC(=O)/C=C/c1ccc(O)c(OC)c1)Cc1ccccc1 = 0.9

Memo: COc1cc(/C=C/C(=O)NCCCN(C)Cc2ccccc2OC)ccc1O , reported Activity: 1.3

Field Activity (entry COc1cc(/C=C/C(=O)NCCCCCCN(C)Cc2ccccc2OC)ccc1O ) reads 1.3

So for CCN(CCCCCCNC(=O)/C=C/c1ccc(O)c(OC)c1)Cc1ccccc1 , the logged Activity turned out to be 1.1

For this molecule ( COc1cc(/C=C/C(=O)NCCCN(C)Cc2ccccc2)ccc1O ), measured Activity is 1.2

Form: molecule = CCN(CCCNC(=O)/C=C/c1ccc(O)c(OC)c1)Cc1ccccc1OC ; Activity = 1.1

Activity reading for CCN(CCCCNC(=O)/C=C/c1ccc(O)c(OC)c1)Cc1ccccc1 : 1.1

Notebook: COc1cc(/C=C/C(=O)NCCCCN(C)Cc2ccccc2)ccc1O , Activity read as 1.3

Record summary for CCN(CCCCCCNC(=O)/C=C/c1ccc(O)c(OC)c1)Cc1ccccc1OC : reported Activity = 1.2

###

Reported pIC50 values follow for various molecules
# STUDY_TARGET: Acetylcholinesterase (Electrophorus electricus)
# Sequence (O42275 whole entry): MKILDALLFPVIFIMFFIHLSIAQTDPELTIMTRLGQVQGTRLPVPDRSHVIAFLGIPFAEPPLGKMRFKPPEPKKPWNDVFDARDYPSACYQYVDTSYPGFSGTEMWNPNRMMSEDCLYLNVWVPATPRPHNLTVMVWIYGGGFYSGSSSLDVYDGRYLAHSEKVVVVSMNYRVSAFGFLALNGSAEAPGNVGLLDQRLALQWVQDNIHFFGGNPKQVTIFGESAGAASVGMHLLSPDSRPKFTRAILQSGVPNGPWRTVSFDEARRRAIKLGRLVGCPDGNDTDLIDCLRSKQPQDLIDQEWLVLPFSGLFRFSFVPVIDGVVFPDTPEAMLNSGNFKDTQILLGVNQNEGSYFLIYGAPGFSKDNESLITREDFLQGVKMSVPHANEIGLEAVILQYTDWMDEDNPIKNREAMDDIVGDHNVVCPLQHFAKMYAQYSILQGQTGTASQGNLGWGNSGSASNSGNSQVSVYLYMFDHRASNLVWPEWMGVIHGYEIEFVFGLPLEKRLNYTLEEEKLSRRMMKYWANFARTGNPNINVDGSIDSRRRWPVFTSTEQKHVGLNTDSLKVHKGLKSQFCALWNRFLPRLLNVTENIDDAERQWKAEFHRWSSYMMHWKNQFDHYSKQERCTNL
Please report pIC50 as the negative decimal logarithm of the molar concentration, giving only the number.

A selection of reference data follows.
CCN(CCCNC(=O)/C=C/c1ccc(O)c(OC)c1)Cc1ccccc1 = 4.50
CCN(CCCCCCNC(=O)/C=C/c1ccc(O)c(OC)c1)Cc1ccccc1 = 5.09
CCN(CCCNC(=O)/C=C/c1ccc(O)c(OC)c1)Cc1ccccc1OC = 4.80

// pIC50 value for COc1cc(/C=C/C(=O)NCCCN(C)Cc2ccccc2)ccc1O : 4.46

The molecule listed as COc1cc(/C=C/C(=O)NCCCN(C)Cc2ccccc2OC)ccc1O shows pIC50 equal to 4.60

# molecule CCN(CCCCNC(=O)/C=C/c1ccc(O)c(OC)c1)Cc1ccccc1OC ; its pIC50 = 5.07

The recorded pIC50 for entry CCN(CCCCCCNC(=O)/C=C/c1ccc(O)c(OC)c1)Cc1ccccc1OC equals 5.49

###

# STUDY_TARGET: Cholinesterase (Equus caballus)
# PROTOCOL_DESCRIPTION: Inhibition of equine serum BuChE at 50 uM pre-incubated for 15 mins before butylthiocholine chloride substrate addition by Ellman assay
VALUE_TYPE: inhibition

CCN(CCCNC(=O)/C=C/c1ccc(O)c(OC)c1)Cc1ccccc1 = < 5%
COc1cc(/C=C/C(=O)O)ccc1O [FERULATE] = < 5%

In the following, a different compound is considered.
// inhibition lookup, compound = CCN(CCCCNC(=O)/C=C/c1ccc(O)c(OC)c1)Cc1ccccc1OC , result: < 5%

###

# PROTOCOL_DESCRIPTION: in vitro
# CONDITION_NOTES: PAMPA
VALUE_TYPE: Papp at 100 ug/ml (×10⁻⁶ cm/s)
// note: answer is a bare numeric in ×10⁻⁶ cm/s

CC(=O)[C@H]1CC[C@H]2[C@@H]3CCC4=CC(=O)CC[C@]4(C)[C@H]3CC[C@]12C = 15.9
CCn1cc(C(=O)O)c(=O)c2cc(F)c(N3CCNC(C)C3)c(F)c21 (stereo not drawn) = 0.52

Switching to the query record.
Lab note: CN1C(C(=O)Nc2ccccn2)=C(O)c2ccccc2S1(=O)=O gave Papp at 100 ug/ml of 0.63
